The measurements presented in this section are drawn from PubChem BioAssay.

protocol description: endothelial E-selectin expression blockers – imaging, HUVEC, immunofluorescence, MLSMR starter and 10KST1 sets, primary screen (AID 487);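 also: 100% = median nuclei count of all wells on the same plate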
condition description: HUVEC TNFalpha-induced E-selectin immunofluorescence imaging, at 2 µM; measured here: cell number, toxicity
Overview of reported nuclei count across a group of compounds:
recorded endpoint: nuclei count (%)

> print(dat)
                                   compound  recorded.endpoint  measured.number
1  CCOC(=O)CN1CC23C=CC(O2)C(C(=O)Nc2ccc(C(C)=O)cc2)C3C1=O (stereo unspecified)       nuclei count              127
2           CCCCCc1c(C)nc(SCC(=O)O)[nH]c1=O       nuclei count              106
3        Cn1cnc2cc(NC(=O)c3ccc(Cl)cc3)ccc21       nuclei count              106
4               Cc1ccc(N=Cc2ccc[nH]2)c(O)c1       nuclei count              112
5  Cc1ccc(Cn2c(CN3CCOCC3)nc3c2c(=O)n(C)c(=O)n3C)cc1       nuclei count              104
6  CCN(CC)CCCN1C(=O)C(=O)/C(=C(/O)c2ccc3c(c2)OCO3)C1c1ccccn1 (stereo unspecified)       nuclei count             90.7

----------
Overview of reported inhibition across a group of molecules:
protocol description: blockers of RIG-like receptor reporter activation – cell-based, Sendai virus stimulus, luciferase, 10K MLSCN set, TLR/RLR signaling modifier project, primary screen (AID 602276);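 also: firefly luciferase from ISG56 promoter only with Renilla not read in this screen; 0% = Sendai virus plus DMSO and 100% = medium plus DMSO without virus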
condition description: HEK293 RL24 IRF3 luciferase reporter, at 10 µM, stronger effect = higher value
recorded endpoint: inhibition (%)

> print(dat)
                                    molecule  measured.number
 1      CCOC(=O)C1CCN(Cc2c(O)ccc3ccccc23)CC1             25.4
 2  COc1ccccc1NC(=O)C(C)NS(=O)(=O)c1ccc(F)cc1 (stereo unspecified)              3.7
 3  COc1ccc(S(=O)(=O)n2nc(OC(=O)c3ccc(C)cc3)cc2N)cc1               14
 4  Cc1ccc2nc(NC(=O)C3CCCN(S(=O)(=O)c4cccc5nonc45)C3)sc2c1 (stereo unspecified)             14.7
 5  COc1ccccc1NC(=O)c1oc2ccccc2c1NC(=O)c1cc(OC)c(OC)c(OC)c1               36
 6  Cc1noc(C)c1CSc1nnc2n(-c3ccccc3)c(=O)c3ccccc3n12             7.36
 7      CCOc1ccc(NC(=O)CSc2nc3cccnc3n2CC)cc1             12.5
 8  O=C(CSc1nnc(-c2ccco2)n1-c1ccccc1)N1CCN(C(=O)c2ccco2)CC1             11.5
 9  O=C(CC1CCS(=O)(=O)C1)Nc1ccc[nH]c1=O (stereo unspecified)             16.2
10         COc1ccc(C(=O)c2ccc(OC)c(N)c2)cc1N               35
11  CCC(=O)Nc1c(C#N)c2nc3ccccc3nc2n1-c1ccccc1C             12.6

----------
protocol description: inhibitors of TNFa-induced NFkB p65 translocation, primary screen, imaging, HUVEC, MLSMR starter and 10KST1 sets (AID 438);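 also: compound added about 3h40 before a 20 min TNFalpha stimulation; signal is the nuclear over cytoplasmic p65 intensity ratio per well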
condition description: HUVEC TNFa-induced p65 nuclear translocation; at 2 µM, stronger effect = higher value, 0% TNFa-plus-vehicle, 100% no-TNFa wells
recorded endpoint: inhibition (%)

> print(dat)
                                    compound  measured.number
 1    CCOc1ccccc1CNC(=O)CCN1C(=O)COc2ccccc21             -1.8
 2  Cc1cccc(C2CC(c3ccccc3)Nc3nc(N)nn32)c1 (stereo unspecified)             -3.4
 3  CCCC1(C(=O)OC)NC(c2cc(OC)c(OC)c(OC)c2)C2C(=O)N(CC)C(=O)C21 (stereo unspecified)              5.5
 4          O=C(CCSc1nccn1Cc1ccccc1)N1CCOCC1             -6.8
 5   C=CCc1cccc2cc(C(=O)NCc3cccnc3)c(=O)oc12              3.5
 6  O=C(CCN1C(=O)c2ccccc2C1=O)N1CCN(C(=O)c2ccccc2)CC1              2.5
 7  CC1CC(C)CN(c2ncnc3c2cnn3-c2ccc(Cl)cc2)C1 (stereo unspecified)              3.4
 8   Cc1ccc(NC(=O)c2ccco2)c(NC(=O)c2cccs2)c1              4.8
 9       O=C(COC(=O)CCC(=O)c1cccs1)NCc1ccco1            -20.9
10        O=C(O)c1cc(Cl)c(Cl)cc1C(=O)N1CCCC1                0
11      O=S1(=O)C=C(Sc2nc3ccccc3s2)c2ccccc21             -2.6
